meta.source: ChEMBL document CHEMBL4680371

Collected pKi values appear next to each entry.
TARGET UNDER TEST: Furin (Homo sapiens, UniProt P09958)
Sequence (P09958 whole entry): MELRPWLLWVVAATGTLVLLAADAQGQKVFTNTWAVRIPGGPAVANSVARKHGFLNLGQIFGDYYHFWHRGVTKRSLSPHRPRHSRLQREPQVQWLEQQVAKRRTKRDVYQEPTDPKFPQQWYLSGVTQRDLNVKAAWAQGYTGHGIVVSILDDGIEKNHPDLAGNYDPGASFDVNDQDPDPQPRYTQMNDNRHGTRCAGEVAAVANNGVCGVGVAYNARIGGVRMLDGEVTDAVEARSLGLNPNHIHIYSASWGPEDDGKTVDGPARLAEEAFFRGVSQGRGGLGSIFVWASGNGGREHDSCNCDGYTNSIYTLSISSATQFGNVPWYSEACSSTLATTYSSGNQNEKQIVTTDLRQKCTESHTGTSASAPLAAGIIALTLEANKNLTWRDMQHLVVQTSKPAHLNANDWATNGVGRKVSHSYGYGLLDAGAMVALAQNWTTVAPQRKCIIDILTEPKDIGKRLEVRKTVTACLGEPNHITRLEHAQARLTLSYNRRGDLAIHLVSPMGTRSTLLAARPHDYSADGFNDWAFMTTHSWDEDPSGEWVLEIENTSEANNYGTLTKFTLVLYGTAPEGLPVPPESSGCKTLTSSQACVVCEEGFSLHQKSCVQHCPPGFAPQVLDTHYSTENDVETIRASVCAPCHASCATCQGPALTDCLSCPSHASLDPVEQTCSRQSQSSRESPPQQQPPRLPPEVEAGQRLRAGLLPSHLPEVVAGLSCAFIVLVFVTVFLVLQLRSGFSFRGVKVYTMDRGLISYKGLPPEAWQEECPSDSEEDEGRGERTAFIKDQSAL
EXPERIMENT SUMMARY: Inhibition of recombinant soluble human furin using pyroGlu-Arg-Thr-Lys-Arg-methyl-coumaryl-7-amide as substrate measured after 1 hr
pKi: −log10 of the molar value.
REPORTED PROPERTY: pKi

ITEM SMILES: CC[C@H](NC(=O)[C@H](CCCNC(=N)N)NC(=O)[C@H](C)NC(=O)[C@H](CCCNC(=N)N)NC(C)=O)C(=O)N[C@@H](CCCNC(=N)N)C(=O)N[C@@H](CCCCN)C(=O)N[C@@H](CCCCN)C(=O)N[C@@H](CCCNC(=N)N)C(=O)N[C@H](C(N)=O)[C@@H](C)O
TARGET UNDER TEST: Furin (Homo sapiens, UniProt P09958)
REPORTED: 7.96
//
ITEM SMILES: CC(=O)N[C@@H](CCCNC(=N)N)C(=O)N[C@@H](C)C(=O)N[C@@H](Cc1ccc(O)cc1)C(=O)N[C@@H](CCCNC(=N)N)C(=O)N[C@@H](CCCNC(=N)N)C(=O)N[C@@H](CCCCN)C(=O)N[C@@H](CCCCN)C(=O)N[C@@H](CCCNC(=N)N)C(=O)N[C@H](C(N)=O)[C@@H](C)O
TARGET UNDER TEST: Furin (Homo sapiens, UniProt P09958)
REPORTED: 7.32
//
ITEM SMILES: CC(=O)N[C@@H](CCCNC(=N)N)C(=O)N[C@@H](C)C(=O)N[C@@H](CCCNC(=N)N)C(=O)N[C@H](C(=O)N[C@@H](CCCNC(=N)N)C(=O)N[C@@H](CCCCN)C(=O)N[C@@H](CCCCN)C(=O)N[C@@H](CCCNC(=N)N)C(=O)N[C@H](C(N)=O)[C@@H](C)O)[C@@H](C)O
TARGET UNDER TEST: Furin (Homo sapiens, UniProt P09958)
REPORTED: 8.10
//
ITEM SMILES: CC(=O)N[C@@H](Cc1ccc(O)cc1)C(=O)N[C@@H](C)C(=O)N[C@@H](CCCNC(=N)N)C(=O)N[C@@H](CCCNC(=N)N)C(=O)N[C@@H](CCCNC(=N)N)C(=O)N[C@@H](CCCCN)C(=O)N[C@@H](CCCCN)C(=O)N[C@@H](CCCNC(=N)N)C(=O)N[C@H](C(N)=O)[C@@H](C)O
TARGET UNDER TEST: Furin (Homo sapiens, UniProt P09958)
REPORTED: 7.74

====

Measured Ki, listed per entry.
TARGET UNDER TEST: Furin (Homo sapiens, UniProt P09958)
EXPERIMENT SUMMARY: Inhibition of recombinant soluble human furin using pyroGlu-Arg-Thr-Lys-Arg-methyl-coumaryl-7-amide as substrate measured after 1 hr
Where a SMILES comes first, the peptide text is derived from it.

MOLECULE: CC(=O)N[C@@H](CCCNC(=N)N)C(=O)N[C@@H](CCCCN)C(=O)N[C@@H](CCCNC(=N)N)C(=O)N[C@@H](CCCNC(=N)N)C(=O)N[C@@H](CCCNC(=N)N)C(=O)N[C@@H](CCCCN)C(=O)N[C@@H](CCCCN)C(=O)N[C@@H](CCCNC(=N)N)C(=O)N[C@H](C(N)=O)[C@@H](C)O
Ki: 16 nM
//
MOLECULE: CC(=O)N[C@@H](CO)C(=O)N[C@@H](C)C(=O)N[C@@H](CCCNC(=N)N)C(=O)N[C@@H](CCCNC(=N)N)C(=O)N[C@@H](CCCNC(=N)N)C(=O)N[C@@H](CCCCN)C(=O)N[C@@H](CCCCN)C(=O)N[C@@H](CCCNC(=N)N)C(=O)N[C@H](C(N)=O)[C@@H](C)O
Ki: 11 nM
//
MOLECULE: CC[C@H](C)[C@H](NC(=O)[C@H](CCCNC(=N)N)NC(=O)[C@H](C)NC(=O)[C@H](CO)NC(C)=O)C(=O)N[C@@H](CCCNC(=N)N)C(=O)N[C@@H](CCCCN)C(=O)N[C@@H](CCCCN)C(=O)N[C@@H](CCCNC(=N)N)C(=O)N[C@H](C(N)=O)[C@@H](C)O (Ac-SARIRKKRT-NH2)
Ki: 8 nM
//
MOLECULE: CC(=O)N[C@@H](CCCNC(=N)N)C(=O)N[C@@H](C)C(=O)N[C@@H](CCCNC(=N)N)C(=O)N[C@@H](Cc1ccccc1)C(=O)N[C@@H](CCCNC(=N)N)C(=O)N[C@@H](CCCCN)C(=O)N[C@@H](CCCCN)C(=O)N[C@@H](CCCNC(=N)N)C(=O)N[C@H](C(N)=O)[C@@H](C)O
Ki: 21 nM
//
MOLECULE: CC(=O)N[C@@H](CCCNC(=N)N)C(=O)N[C@@H](C)C(=O)N[C@@H](CCCNC(=N)N)C(=O)N[C@@H](CCCNC(=N)N)C(=O)N[C@@H](CCCNC(=N)N)C(=O)N[C@@H](CCCCN)C(=O)N[C@@H](CCCCN)C(=O)NN(CCCNC(=N)N)CC(=O)N[C@@H](Cc1ccccc1)C(N)=O
Ki: 2500 nM
//
MOLECULE: CCCC[C@H](NC(=O)[C@H](CCCNC(=N)N)NC(=O)[C@H](C)NC(=O)[C@H](CCCNC(=N)N)NC(C)=O)C(=O)N[C@@H](CCCNC(=N)N)C(=O)N[C@@H](CCCCN)C(=O)N[C@@H](CCCCN)C(=O)N[C@@H](CCCNC(=N)N)C(=O)N[C@H](C(N)=O)[C@@H](C)O
Ki: 19 nM
//
MOLECULE: CC(=O)N[C@@H](CCCNC(=N)N)C(=O)NCC(=O)N[C@@H](CCCNC(=N)N)C(=O)N[C@@H](CCCNC(=N)N)C(=O)N[C@@H](CCCNC(=N)N)C(=O)N[C@@H](CCCCN)C(=O)N[C@@H](CCCCN)C(=O)N[C@@H](CCCNC(=N)N)C(=O)N[C@H](C(N)=O)[C@@H](C)O
Ki: 17 nM
